Measured Ki accompanies every entry in the list below.
test target: hCA I (Homo sapiens, UniProt P00915)
Sequence (P00915 whole entry): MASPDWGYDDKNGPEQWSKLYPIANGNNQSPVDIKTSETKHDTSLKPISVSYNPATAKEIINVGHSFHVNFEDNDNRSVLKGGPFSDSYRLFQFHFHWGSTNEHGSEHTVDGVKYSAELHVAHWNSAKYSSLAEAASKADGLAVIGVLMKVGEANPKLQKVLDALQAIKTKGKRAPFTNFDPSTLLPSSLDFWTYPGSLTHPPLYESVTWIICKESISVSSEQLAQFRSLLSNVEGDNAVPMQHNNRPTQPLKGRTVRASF
Record the value in nM, omitting the unit from your answer.

COc1cc(C(=O)c2cn(-c3ccc(S(N)(=O)=O)cc3)c3ccccc23)cc(OC)c1OC; 446

What is its Ki for hCA I (Homo sapiens, UniProt P00915)? Entry: COc1cc(C(=O)c2cn(-c3cccc(S(N)(=O)=O)c3)c3ccccc23)cc(OC)c1OC
943

---

test target: hCA IX (Homo sapiens, UniProt Q16790)
Construct: made in house
method summary: Stopped flow CO2 hydrase assay, hCA IX
Format: biochemical
condition info: stopped flow technique, mean from three assays
property: pKi
Entry type: numeric. Quantity: pKi, the -log10 of concentration in molar units.

COc1cc(C(=O)c2cn(-c3cccc(S(N)(=O)=O)c3)cc2-c2ccccc2)cc(OC)c1OC [Compound 16]; 7.41
COc1cc(C(=O)c2cn(-c3ccccc3S(N)(=O)=O)c3ccccc23)cc(OC)c1OC [Compound 21]; 5.11
COc1cc(C(=O)c2ccn(-c3cccc(S(N)(=O)=O)c3)c2)cc(OC)c1OC [Compound 12]; 7.46
COc1cc(C(=O)c2cn(-c3cccc(S(N)(=O)=O)c3)c3ccccc23)cc(OC)c1OC [Compound 20]; 7.16
COc1cc(C(=O)c2ccn(-c3ccccc3S(N)(=O)=O)c2)cc(OC)c1OC [Compound 13]; 6.64

Shifting focus to the compound that follows.
State the recorded pKi for this entry: COc1cc(C(=O)c2cn(-c3ccccc3S(N)(=O)=O)cc2-c2ccccc2)cc(OC)c1OC [Compound 17]
5.05

Every entry's value here was drawn from paper PMC10641813.
